Test: S16 Schwann cell PMP22 intronic element firefly luciferase assay (AID 624032); also: nearly all actives have a fitted effect of over 30% in size
Conditions: S16 rat Schwann cells, PMP22 element FLuc, 24 h; series mostly up to 57.5 µM
Inconclusive results are not listed. Calls of active or inactive are those of the source. Calls follow the shape of the dose curve; as a rule, active = well fitted inhibition curve with a large enough effect; inconclusive = small, poorly fitted or top-dose-only effect; inactive = no such curve, though single readings can be large or run the other way.
Can you answer with just one of these options? y = active, n = inactive

Completed entries (count: 3):
[[record]]
compound = "NC(=O)NO"
cat = "n"

[[record]]
compound = "CCC1(c2ccccc2)C(=O)NCNC1=O"
cat = "n"

[[record]]
compound = "CN(C)c1nc(N(C)C)nc(N(C)C)n1"
cat = "n"


// param item: NC(=O)OCC(COC(N)=O)c1ccccc1 ; yields the recorded call
n

What do you have for CC(=O)OCC(CCn1cnc2cnc(N)nc21)COC(C)=O ?
n

What do you have for CC(C)Cc1ccc(C(C)C(=O)O)cc1 (stereo not drawn) ?
n

What do you have for CN1CCN2c3ccccc3Cc3ccccc3C2C1 (stereo not drawn) ?
n

What do you have for CC(CCc1ccc(O)cc1)NCCc1ccc(O)c(O)c1 (stereo not drawn) ?
n

What do you have for CC[C@@]1(O)C(=O)OCc2c1cc1n(c2=O)Cc2cc3c(CN(C)C)c(O)ccc3nc2-1 ?
y

What do you have for O=c1c(O)c(-c2ccc(O)c(O)c2)oc2cc(O)cc(O)c12 ?
n

What do you have for O=C(c1ccc(F)cc1)C1CCN(CCn2c(=O)[nH]c3ccccc3c2=O)CC1 ?
n

What do you have for Cc1cn([C@H]2C=C[C@@H](CO)O2)c(=O)[nH]c1=O ?
n

What do you have for C[C@](N)(Cc1ccc(O)c(O)c1)C(=O)O ?
n

* * *

Assay: qHTS drug screen for cell cycle checkpoint inhibitors in PARPi-resistant BRCA-mutant ovarian cancer cell lines. (AID 1963452)
Conditions: PEO1/OlaR viability, CellTiter-Glo luminescence, 96 h; measured here: PEO1 parental Z-AUC; stronger effect = lower value
Label 1 when Z-AUC is strictly below 0.6; at or above that, label 0.

Completed entries (count: 4):
[[record]]
molecule = "Cc1ccc(-c2cc(C(F)(F)F)nn2-c2ccc(S(N)(=O)=O)cc2)cc1"
cat = 1

[[record]]
molecule = "CC(C(=O)O)c1cccc(C(=O)c2ccccc2)c1 (stereo unspecified)"
cat = 1

[[record]]
molecule = "C[C@](N)(Cc1ccc(O)c(O)c1)C(=O)O"
cat = 0

[[record]]
molecule = "COc1ccc(CCN(C)CCCC(C#N)(c2ccc(OC)c(OC)c2)C(C)C)cc1OC (stereo unspecified)"
cat = 0


Would you kindly verify if Z-AUC of COc1cc2c(c(OC)c1OC)-c1ccc(OC)c(=O)cc1[C@@H](NC(C)=O)CC2 is strictly less than 0.6?
1

What do you have for Nc1nnc(-c2cccc(Cl)c2Cl)c(N)n1 ?
1

* * *

Test: qHTS of pediatric cancer cell lines to identify multiple opportunities for drug repurposing: Primary screen for SK-N-MC cells (AID 1347093)
Settings: SK-N-MC viability, CellTiter-Glo luminescence, 48 h; series mostly up to 46 µM
Results filed as inconclusive are left out. Calls of active or inactive are those of the source. Calls come from the whole dose curve; as a rule, active = well fitted cell-killing curve with a large enough effect; inconclusive = small, poorly fitted or top-dose-only effect; inactive = no such curve, though single readings can be large or run the other way.
Can you answer with just one of these options? true (1) for active, false (0) for inactive

Completed entries (count: 3):
[[record]]
compound = "OCCN1CCN(CCCN2c3ccccc3Sc3ccc(C(F)(F)F)cc32)CC1"
cat = "true (1)"

[[record]]
compound = "O=C1N(c2ccccc2)c2ccccc2C1(Cc1ccncc1)Cc1ccncc1"
cat = "false (0)"

[[record]]
compound = "NCCS(=O)(=O)O"
cat = "false (0)"


// param item: N[C@@H](Cc1c[nH]c2ccc(O)cc12)C(=O)O ; yields the recorded call
false (0)

What do you have for CN(Cc1cnc2nc(N)nc(N)c2n1)c1ccc(C(=O)N[C@@H](CCC(=O)O)C(=O)O)cc1 ?
true (1)

What do you have for CN1CCN2c3ccccc3Cc3ccccc3C2C1 (configuration not stated) ?
false (0)

What do you have for Cc1cnc(C(=O)NCCc2ccc(S(=O)(=O)NC(=O)NC3CCCCC3)cc2)cn1 ?
false (0)

What do you have for CC(C)Cc1ccc(C(C)C(=O)O)cc1 (configuration not stated) ?
false (0)

What do you have for O=C1Cc2cc(CCN3CCN(c4nsc5ccccc45)CC3)c(Cl)cc2N1 ?
false (0)

What do you have for COc1cc2nc(N3CCN(C(=O)c4ccco4)CC3)nc(N)c2cc1OC ?
true (1)

What do you have for COc1ccccc1N1CCN(CC(O)COc2cccc3ccccc23)CC1 (configuration not stated) ?
false (0)

What do you have for CN(C)C(=N)N=C(N)N ?
false (0)

* * *

Test: Quantitative High-Throughput drug screen in 47 multiple myeloma cell lines against the NCATS MIPE library collection: KMS20_JCRB cell viability assay (AID 1918973); also: nearly all actives have a fitted effect of over 45% in size; also: potency is read from the fitted curve at half-maximal effect
Conditions: CellTiter-Glo ATP, 48 h; series mostly up to 45.8 µM
Results filed as inconclusive are left out. Activity calls are given as the source filed them. Calls come from the whole dose curve; as a rule, active = well fitted cell-killing curve with a large enough effect; inconclusive = small, poorly fitted or top-dose-only effect, or effect the other way; inactive = no such curve, though single readings can be large or run the other way.
observed_property: Potency

Examples from the recorded data:
[[record]]
chemical_structure = "COc1ccc2c(c1)c(CC(=O)O)c(C)n2C(=O)c1ccc(Cl)cc1"
result = "9.35 µM (active)"

[[record]]
chemical_structure = "CC(=O)OCC(CCn1cnc2cnc(N)nc21)COC(C)=O"
result = "inactive"

[[record]]
chemical_structure = "O=C1c2c(O)ccc(O)c2C(=O)c2c(NCCNCCO)ccc(NCCNCCO)c21"
result = "0.132 µM (active)"

[[record]]
chemical_structure = "CN(C)CCCN1c2ccccc2CCc2ccc(Cl)cc21"
result = "1.87 µM (active)"


I am curious: what Potency value has been reported for OCCN1CCN(CCCN2c3ccccc3Sc3ccc(C(F)(F)F)cc32)CC1 ?
16.6 µM (active)

What do you have for Cc1cc(C(C)(C)C)cc(C)c1CC1=NCCN1 ?
inactive

What do you have for CN1CCC(=C2c3ccccc3C=Cc3ccccc32)CC1 ?
9.35 µM (active)

What do you have for C[C@](N)(Cc1ccc(O)c(O)c1)C(=O)O ?
16.6 µM (active)

* * *

Experiment: qHTS of pediatric cancer cell lines to identify multiple opportunities for drug repurposing: Primary screen for RD cells (AID 1347104); also: nearly all actives have a fitted effect of over 55% in size
Conditions: RD rhabdomyosarcoma viability, CellTiter-Glo luminescence, 48 h; series mostly up to 46 µM
Results filed as inconclusive are left out. Calls of active or inactive are those of the source. Calls follow the shape of the dose curve; as a rule, active = well fitted cell-killing curve with a large enough effect; inconclusive = small, poorly fitted or top-dose-only effect; inactive = flat fitted curve, though single readings scatter.
Can you answer with just one of these options? t (active), f (inactive)

[[record]]
chemical_structure = "NCCCCCC(=O)O"
cat = "f"

[[record]]
chemical_structure = "Clc1ccccc1C(c1ccccc1)(c1ccccc1)n1ccnc1"
cat = "t"

[[record]]
chemical_structure = "Nc1nnc(-c2cccc(Cl)c2Cl)c(N)n1"
cat = "f"

[[record]]
chemical_structure = "O=c1c(O)c(-c2ccc(O)c(O)c2)oc2cc(O)cc(O)c12"
cat = "f"

[[record]]
chemical_structure = "C[C@H]1c2cccc(O)c2C(O)=C2C(=O)[C@]3(O)C(O)=C(C(N)=O)C(=O)[C@@H](N(C)C)[C@@H]3[C@@H](O)[C@@H]21"
cat = "f"


Pending compound:
// param item: Clc1ccc2nsnc2c1NC1=NCCN1 ; yields the recorded call
f

* * *

Tested on: CP329
Assay: qHTS profiling for inhibitors of Plasmodium falciparum proliferation (AID 504749);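 also: 0% = DMSO vehicle and full inhibition = artemisinin control; nearly all actives have a fitted effect of over 60% in size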
Details: P. falciparum in erythrocytes, SYBR Green DNA, 72 h; series mostly up to 28.7 µM
Results filed as inconclusive are left out. Calls of active or inactive are those of the source. Calls follow the shape of the dose curve; as a rule, active = well fitted inhibition curve with a large enough effect; inconclusive = small, poorly fitted or top-dose-only effect; inactive = flat fitted curve, though single readings scatter.
observed_property: outcome

[[record]]
chemical_structure = "NC12CC3CC(CC(C3)C1)C2"
result = "inactive"

[[record]]
chemical_structure = "NS(=O)(=O)c1cc2c(cc1Cl)NCNS2(=O)=O"
result = "inactive"

[[record]]
chemical_structure = "CC[N+](CC)(CC)CCOc1cccc(OCC[N+](CC)(CC)CC)c1OCC[N+](CC)(CC)CC"
result = "inactive"


* * *

Test: qHTS of pediatric cancer cell lines to identify multiple opportunities for drug repurposing: Primary screen for RD cells (AID 1347104); also: nearly all actives have a fitted effect of over 55% in size
Settings: RD rhabdomyosarcoma viability, CellTiter-Glo luminescence, 48 h; series mostly up to 46 µM
Results filed as inconclusive are left out. Calls of active or inactive are those of the source. Calls follow the shape of the dose curve; as a rule, active = well fitted cell-killing curve with a large enough effect; inconclusive = small, poorly fitted or top-dose-only effect; inactive = flat fitted curve, though single readings scatter.
Can you answer with just one of these options? 1 (yes) for active, 0 (no) for inactive

// param item: O=C1N(c2ccccc2)c2ccccc2C1(Cc1ccncc1)Cc1ccncc1 ; yields the recorded call
0 (no)

What do you have for Cc1ccc(C(=O)Nc2ccc(S(=O)(=O)O)c3cc(S(=O)(=O)O)cc(S(=O)(=O)O)c23)cc1NC(=O)c1cccc(NC(=O)Nc2cccc(C(=O)Nc3cc(C(=O)Nc4ccc(S(=O)(=O)O)c5cc(S(=O)(=O)O)cc(S(=O)(=O)O)c45)ccc3C)c2)c1 ?
0 (no)

What do you have for COc1cc2nc(N3CCN(C(=O)c4ccco4)CC3)nc(N)c2cc1OC ?
1 (yes)

What do you have for CC[N+](CC)(CC)CCOc1cccc(OCC[N+](CC)(CC)CC)c1OCC[N+](CC)(CC)CC ?
0 (no)

What do you have for CCOC(=O)C(C)(C)Oc1ccc(Cl)cc1 ?
0 (no)

What do you have for COc1ccccc1N1CCN(CC(O)COc2cccc3ccccc23)CC1 (centres undefined) ?
0 (no)

What do you have for Cc1cn([C@H]2C=C[C@@H](CO)O2)c(=O)[nH]c1=O ?
0 (no)

What do you have for OCCN1CCN(CCCN2c3ccccc3Sc3ccc(C(F)(F)F)cc32)CC1 ?
1 (yes)

What do you have for Cn1c(=O)c2c(ncn2C)n(C)c1=O ?
0 (no)

What do you have for Cc1cn([C@H]2C[C@H](N=[N+]=[N-])[C@@H](CO)O2)c(=O)[nH]c1=O ?
0 (no)

What do you have for Nc1nc2c(ncn2COC(CO)CO)c(=O)[nH]1 ?
0 (no)
